- Experimental target: TRPC5 (Homo sapiens)
- Construct: expressed in transfected cells; host or cells: HEK 293
- Sequence (Q9UL62 1-973): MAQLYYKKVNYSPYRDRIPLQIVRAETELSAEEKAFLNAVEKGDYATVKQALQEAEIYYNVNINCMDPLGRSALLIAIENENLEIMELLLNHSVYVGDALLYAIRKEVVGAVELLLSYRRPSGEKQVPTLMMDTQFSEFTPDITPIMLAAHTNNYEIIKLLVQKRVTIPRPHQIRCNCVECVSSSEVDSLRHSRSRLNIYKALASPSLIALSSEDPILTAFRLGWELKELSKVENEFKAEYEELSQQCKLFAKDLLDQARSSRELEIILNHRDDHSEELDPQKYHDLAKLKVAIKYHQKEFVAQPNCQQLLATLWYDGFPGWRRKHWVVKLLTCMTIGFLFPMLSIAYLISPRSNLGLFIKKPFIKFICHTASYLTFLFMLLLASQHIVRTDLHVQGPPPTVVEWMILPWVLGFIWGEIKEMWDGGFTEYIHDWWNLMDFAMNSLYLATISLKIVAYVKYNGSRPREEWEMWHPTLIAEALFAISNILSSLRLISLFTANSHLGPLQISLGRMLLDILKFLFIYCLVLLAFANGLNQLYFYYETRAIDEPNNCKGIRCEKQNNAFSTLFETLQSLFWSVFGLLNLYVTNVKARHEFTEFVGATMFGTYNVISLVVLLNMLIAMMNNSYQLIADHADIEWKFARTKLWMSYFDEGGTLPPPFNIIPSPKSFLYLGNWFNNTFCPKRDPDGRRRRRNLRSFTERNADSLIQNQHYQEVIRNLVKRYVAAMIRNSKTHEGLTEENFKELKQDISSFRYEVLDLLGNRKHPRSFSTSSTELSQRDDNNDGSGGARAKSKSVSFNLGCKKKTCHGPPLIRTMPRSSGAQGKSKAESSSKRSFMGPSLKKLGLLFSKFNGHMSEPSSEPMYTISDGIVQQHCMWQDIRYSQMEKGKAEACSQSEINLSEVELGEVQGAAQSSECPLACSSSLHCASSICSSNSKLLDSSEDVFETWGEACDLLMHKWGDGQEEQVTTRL
- Measurement notes: TRPC5 automated patch clamp assay (Qpatch), current block after rosiglitazone stimulation
- Format: cell-based
- Test conditions: HEK293 cells overexpressing TRPC5; rosiglitazone stimulation; 80 mV; read-out: TRPC5_QP XC50_80
- Description: HEK 293 cells expressing human TRPC5 were harvested, re-suspended in serum free medium, and added to the automated platform and used within 2-3 hours. Internal and external physiological solutions were freshly prepared prior to the assay. […] The automated electrophysiological platform QPatch 16 from Sophion (Denmark) was used to carry out the compounds profiling. The series resistance and quality of seals were continuously monitored during the experiments. […]
pIC50: −log10 of the molar value.
Measure: pIC50

Look up pIC50 for this compound: Cc1ccccc1CN1CCN(c2cn[nH]c(=O)c2Br)CC1
5.30 to 6.00

Look up pIC50 for this compound: CC(c1ccccc1)N1CCN(c2cn[nH]c(=O)c2Br)CC1 (stereo not shown)
5.30 to 6.00

Look up pIC50 for this compound: CN1CCN(c2cn[nH]c(=O)c2Br)CC1
3.30 to 5.00

Look up pIC50 for this compound: O=c1[nH]ncc(N2CCN(CC3CCCCC3)CC2)c1Br
5.30 to 6.00

Look up pIC50 for this compound: Cc1ccccc1CN1CCN(c2c(Br)cn[nH]c2=O)CC1
5.30 to 6.00

Look up pIC50 for this compound: Cc1ccccc1CN1CCN(c2cn[nH]c(=O)c2Br)CC12CC2
3.30 to 5.00

Look up pIC50 for this compound: NC(=O)CN1CCN(c2cn[nH]c(=O)c2Br)CC1
3.30 to 5.00

Look up pIC50 for this compound: O=C(c1ccccc1)N1CCN(c2cn[nH]c(=O)c2Br)CC1
3.30 to 5.00

Look up pIC50 for this compound: O=c1[nH]ncc(N2CCC(Cc3ccccc3)CC2)c1Br
3.30 to 5.00

Look up pIC50 for this compound: Cc1cccc(C)c1CN1CCN(c2cn[nH]c(=O)c2Br)CC1
5.30 to 6.00

Look up pIC50 for this compound: Cc1ccccc1CN1CC2CC(C1)N2c1cn[nH]c(=O)c1Br
3.30 to 5.00

Look up pIC50 for this compound: O=c1[nH]ncc(N2CCN(Cc3ccccc3)CC2)c1Br
5.00 to 5.30

Look up pIC50 for this compound: O=c1[nH]ncc(N2CCN(Cc3ccccc3)C3(CC3)C2)c1Br
3.30 to 5.00

Look up pIC50 for this compound: Cc1ccccc1C(=O)N1CCN(c2cn[nH]c(=O)c2Br)CC1
5.00 to 5.30

Look up pIC50 for this compound: CS(=O)(=O)N1CCN(c2cn[nH]c(=O)c2Br)CC1
3.30 to 5.00

Look up pIC50 for this compound: Cc1ccccc1CN1CCCN(c2cn[nH]c(=O)c2Br)CC1
5.00 to 5.30

Look up pIC50 for this compound: O=c1[nH]ncc(N2CCN(S(=O)(=O)c3ccccc3)CC2)c1Br
3.30 to 5.00

Look up pIC50 for this compound: CN(C)C(=O)CN1CCN(c2cn[nH]c(=O)c2Br)CC1
3.30 to 5.00

Look up pIC50 for this compound: Cc1ccccc1CN1CCN(c2cn[nH]c(=O)c2)CC1
3.30 to 5.00

Look up pIC50 for this compound: Cc1ccccc1CN1CCN(c2cn[nH]c(=O)c2Cl)CC1=O [drawing 631]
6.00 to 11.00

Look up pIC50 for this compound: O=c1[nH]ncc(N2C3CCC2CN(Cc2ccccc2)C3)c1Br
3.30 to 5.00

Look up pIC50 for this compound: Cc1ccccc1S(=O)(=O)N1CCN(c2cn[nH]c(=O)c2Br)CC1
3.30 to 5.00
